Test system: RARa:RXR (NR concentration 270 nM, RXRa partner concentration 90 nM)
protocol.text: PBM binding z-score (relative to random genomic background probes); higher = stronger binding; sequences stand for … in GC…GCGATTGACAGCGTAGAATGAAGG
Category key, based on recorded PBM binding z-score: LOW (below 0.3), MEDIUM (0.3 to below 4), HIGH (4 or more)

{"residue.sequence": "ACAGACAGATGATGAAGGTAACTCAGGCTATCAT", "assayed.system": "RARa:RXR (NR concentration 270 nM, RXRa partner concentration 90 nM)", "group.label": "LOW"}
{"residue.sequence": "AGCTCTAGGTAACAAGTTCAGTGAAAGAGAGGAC", "assayed.system": "RARa:RXR (NR concentration 270 nM, RXRa partner concentration 90 nM)", "group.label": "MEDIUM"}
{"residue.sequence": "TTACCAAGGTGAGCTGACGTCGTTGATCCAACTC", "assayed.system": "RARa:RXR (NR concentration 270 nM, RXRa partner concentration 90 nM)", "group.label": "LOW"}

stdin: Field: class (PBM binding z-score) — entry: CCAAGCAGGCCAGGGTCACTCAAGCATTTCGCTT
stdout: MEDIUM

stdin: Which class holds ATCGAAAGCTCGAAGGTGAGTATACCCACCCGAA ?
stdout: LOW

stdin: Please let me know in which category the item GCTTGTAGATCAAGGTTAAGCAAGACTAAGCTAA belongs.
stdout: MEDIUM

stdin: Class label required: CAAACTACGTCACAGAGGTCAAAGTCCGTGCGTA
stdout: HIGH

stdin: Which of the defined bands does the recorded PBM binding z-score of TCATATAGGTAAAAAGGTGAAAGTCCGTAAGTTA sit within?
stdout: MEDIUM

stdin: Using the reported PBM binding z-score, which band applies to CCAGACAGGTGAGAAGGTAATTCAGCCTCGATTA ?
stdout: MEDIUM

* * *

Parameter: PBM binding z-score. Scope: all listed entries.
Tested on: PPARa:RXRa (NR concentration 270 nM, RXRa partner concentration 90 nM)
protocol.text: PBM binding z-score (relative to random genomic background probes); higher = stronger binding; sequences stand for … in GC…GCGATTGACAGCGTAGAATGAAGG
API doc: respond with a numeric literal and nothing else, no unit.

Answered cases to consult:
{"residue.sequence": "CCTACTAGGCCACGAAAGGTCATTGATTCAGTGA", "PBM binding z-score": 4.84}
{"residue.sequence": "TCATATAGGTAATACAGGTGTAAGTCGGCATCTA", "PBM binding z-score": 1.28}
{"residue.sequence": "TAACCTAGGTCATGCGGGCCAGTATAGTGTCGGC", "PBM binding z-score": 4.09}
{"residue.sequence": "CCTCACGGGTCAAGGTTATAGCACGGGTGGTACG", "PBM binding z-score": 4.38}
{"residue.sequence": "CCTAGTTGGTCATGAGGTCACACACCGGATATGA", "PBM binding z-score": 4.65}

Next:
stdin: // query PBM binding z-score value for entry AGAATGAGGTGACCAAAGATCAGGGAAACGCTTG
stdout: 2.24

* * *

Listing of entries alongside the reported PBM binding z-score.
Tested on: LXRa homodimer (NR concentration 270 nM)
protocol.text: PBM binding z-score (relative to random genomic background probes); higher = stronger binding; sequences stand for … in GC…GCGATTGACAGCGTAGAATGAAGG
Answer using only a numeral; do not append any unit.

Example cases with answers are listed next.
{"residue.sequence": "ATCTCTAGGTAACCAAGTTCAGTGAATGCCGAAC", "assayed.system": "LXRa homodimer (NR concentration 270 nM)", "result": 0.708}
{"residue.sequence": "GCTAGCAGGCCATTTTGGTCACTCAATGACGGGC", "assayed.system": "LXRa homodimer (NR concentration 270 nM)", "result": -1.03}
{"residue.sequence": "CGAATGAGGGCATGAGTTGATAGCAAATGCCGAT", "assayed.system": "LXRa homodimer (NR concentration 270 nM)", "result": -0.461}
{"residue.sequence": "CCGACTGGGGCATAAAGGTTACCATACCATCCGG", "assayed.system": "LXRa homodimer (NR concentration 270 nM)", "result": -0.0869}
{"residue.sequence": "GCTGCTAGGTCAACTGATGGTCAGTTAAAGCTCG", "assayed.system": "LXRa homodimer (NR concentration 270 nM)", "result": 0.245}

stdin: Can you share its PBM binding z-score? I mean this sequence: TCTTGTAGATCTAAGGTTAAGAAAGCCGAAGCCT
stdout: 0.287

stdin: # get_value(readout='PBM binding z-score', item= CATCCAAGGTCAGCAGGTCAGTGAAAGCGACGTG )
stdout: 1.66

stdin: Item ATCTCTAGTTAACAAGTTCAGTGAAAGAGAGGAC has what recorded PBM binding z-score?
stdout: 0.782

stdin: Requested field: PBM binding z-score. Item: AATAGTTGGTCAGCTGAGGTCACACACAATTCGG
stdout: 3.1

stdin: State the recorded PBM binding z-score for this entry: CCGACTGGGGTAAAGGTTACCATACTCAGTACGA
stdout: -0.204

stdin: Sample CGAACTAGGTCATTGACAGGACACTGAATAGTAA — what was its PBM binding z-score?
stdout: 0.64

stdin: Can you share its PBM binding z-score? I mean this sequence: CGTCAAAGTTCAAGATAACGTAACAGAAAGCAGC
stdout: 2.94
